Molecular target: HO-1 (rat spleen) (Rattus norvegicus)
Construct: Spleen microsomes were used as a source of HO-1; from tissue; host or cells: spleen microsomal fraction of adult male Sprague-Dawley rats
Test: HO enzymatic activity in rat spleen microsomal fraction (CO formed from methemalbumin, gas chromatography)
Format: biochemical
Details: rat spleen microsomes; average ± standard deviation of replicate experiments; read-out: IC50 HO-1 (rat spleen)/μM
Where a name gives a salt, the structure may show the parent alone.
Classify: Yes when IC50 is strictly less than 3 µM; No when IC50 is not.

Compound	Label
C[C@@H]1CO[C@](CCc2ccc(Cl)cc2)(Cn2ccnc2)O1 [hydrochloride]	No

is_below(IC50, 3 µM) for COc1ccc(CCN2CCC(Nc3nc4cc(C)c(C)cc4n3Cc3ccc(F)cc3)CC2)cc1 ? No

====

Biological target: HO-2 (rat brain) (Rattus norvegicus, UniProt P23711)
Construct: brain microsomes were used as a source of HO-2; from tissue; host or cells: brain microsomal fraction of adult male Sprague-Dawley rats
Sequence (P23711 whole entry): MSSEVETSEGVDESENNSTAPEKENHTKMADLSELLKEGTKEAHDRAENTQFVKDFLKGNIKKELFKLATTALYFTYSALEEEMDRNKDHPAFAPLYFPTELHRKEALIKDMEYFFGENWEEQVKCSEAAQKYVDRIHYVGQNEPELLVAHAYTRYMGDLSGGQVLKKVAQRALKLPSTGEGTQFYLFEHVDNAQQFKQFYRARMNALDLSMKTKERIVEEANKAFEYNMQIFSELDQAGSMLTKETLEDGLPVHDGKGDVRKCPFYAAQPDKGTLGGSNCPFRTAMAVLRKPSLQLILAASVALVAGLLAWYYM
Assay: HO enzymatic activity in rat brain microsomal fraction (CO formed from methemalbumin, gas chromatography)
Type: biochemical
Conditions: rat brain microsomes; average ± standard deviation of replicate experiments; hydrochloride; read-out: IC50 HO-2 (rat brain)/μM
Where a name gives a salt, the structure may show the parent alone.
Measurement Label: IC50

Compound	Measurement Label	Result
Brc1ccc(CCC2(Cn3ccnc3)OCCO2)cc1 [hydrochloride]	IC50	> 100 µM

Consider the additional compound presented here.
Tell me the measured IC50 of Brc1ccc(CCC2(Cn3ccnc3)OCCO2)cc1.Cl [QC-56, hydrochloride] , please. ≥ 100 µM

====

Molecular target: HO-1 (rat spleen) (Rattus norvegicus, UniProt P06762)
Construct: Spleen microsomes were used as a source of HO-1; from tissue; host or cells: spleen microsomal fraction of adult male Sprague-Dawley rats
Test: HO enzymatic activity in rat spleen microsomal fraction (CO formed from methemalbumin, gas chromatography)
Type: biochemical
Settings: rat spleen microsomes; average ± standard deviation of replicate experiments; read-out: IC50 HO-1 (rat spleen)/μM
Counter-ions that a name gives are not always drawn.
Classify: met when IC50 is strictly less than 8 µM; not met when IC50 is not.

is_below(IC50, 8 µM) for OC(CCc1ccccc1)Cn1cnc(-c2ccccc2)c1 (racemic) [hydrochloride] ? not met

is_below(IC50, 8 µM) for O=C(Cn1ccnc1)c1ccc2c(c1)OCCO2 [hydrochloride] ? not met

is_below(IC50, 8 µM) for O=C(Cn1cncn1)c1ccc2c(c1)CCCC2 ? met

is_below(IC50, 8 µM) for OC[C@@H]1CO[C@@](CCc2ccc(Cl)cc2)(Cn2ccnc2)O1 [hydrochloride] ? not met

is_below(IC50, 8 µM) for Clc1ccc(/C(Cn2ccnc2)=N/OCc2ccc(Br)cc2)cc1 [hydrochloride] ? not met

is_below(IC50, 8 µM) for O=[N+]([O-])c1ccc(SC[C@@H]2CO[C@@](CCc3ccc(Cl)cc3)(Cn3ccnc3)O2)cc1 [hydrochloride] ? met

is_below(IC50, 8 µM) for O=C(Cn1ccnc1)c1ccc(CCc2ccccc2)cc1 [hydrochloride] ? met

is_below(IC50, 8 µM) for c1ccc(SCCCn2ccnc2)cc1 [hydrochloride] ? met

is_below(IC50, 8 µM) for Clc1ccc(CC[C@@]2(Cn3ccnc3)OC[C@@H](CSc3ccccc3)O2)cc1 [hydrochloride] ? met

====

Target: HO-1 (rat spleen) (Rattus norvegicus)
Construct: Spleen microsomes were used as a source of HO-1; from tissue; host or cells: spleen microsomal fraction of adult male Sprague-Dawley rats
Sequence (P06762 1-289): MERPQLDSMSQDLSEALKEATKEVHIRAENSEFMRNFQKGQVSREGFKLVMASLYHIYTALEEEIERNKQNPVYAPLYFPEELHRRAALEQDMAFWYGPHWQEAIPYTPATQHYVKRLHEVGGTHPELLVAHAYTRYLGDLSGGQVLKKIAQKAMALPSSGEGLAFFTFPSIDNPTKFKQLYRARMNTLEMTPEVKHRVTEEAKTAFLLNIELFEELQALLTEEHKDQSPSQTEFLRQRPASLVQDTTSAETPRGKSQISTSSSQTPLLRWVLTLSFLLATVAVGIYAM
Assay: HO enzymatic activity in rat spleen microsomal fraction (CO formed from methemalbumin, gas chromatography)
Type: biochemical
Conditions: rat spleen microsomes; average ± standard deviation of replicate experiments; read-out: IC50 HO-1 (rat spleen)/μM
Structures can show the parent of a compound that is named as a salt.
Measurement Label: IC50 (µM)
The reply should contain only the number, in µM.

Compound	IC50, µM
N#Cc1ccc(OCC2CO[C@@](CCc3ccc(Cl)cc3)(Cn3ccnc3)O2)cc1 (stereo in doubt) [hydrochloride]	0.67
O=C(Cn1cncn1)c1cc(Cl)ccc1Cl	18.4
OC(CCc1ccccc1)Cn1cncn1 (racemic) [hydrochloride]	10.2
OC(CCn1ccnc1)C12CC3CC(CC(C3)C1)C2 (racemic) [hydrochloride]	2
COC(=O)Nc1nc2ccc([S+]([O-])c3ccccc3)cc2[nH]1 (stereo not shown)	115
O=C(Cn1ccnc1)c1cccc(Br)c1 [hydrochloride]	2.1

Tell me the measured IC50 of c1ccc(CCCn2ccnc2)cc1 [hydrochloride] , please. 14

Tell me the measured IC50 of COc1ccc(OCC2CO[C@](CCc3ccc(Cl)cc3)(Cn3ccnc3)O2)cc1 (stereo in doubt) [hydrochloride] , please. 28
